Test: pKa value of the compound.
Assay type: physicochemical
Threshold rule: pKa greater than or equal to 7 is Condition met; below that, Condition not met.

Is the recorded value of pKa equal to or greater than 7 for this molecule? Cc1nc2c(CCc3ccccc3)cccn2c1N Condition met

Check the entry Cc1nc2c(CCc3ccccc3)cccn2c1CC#N : does pKa equal or exceed 7? Condition not met

Decide: is the reported value of pKa for Cc1ccn2c(CC#N)c(C)nc2c1OCc1ccccc1 equal to or greater than 7? Condition not met

Quick check, pKa >= 7? Cc1nc2c(/C=C/Cc3ccccc3)cccn2c1N Condition not met

---

Test: Compound was evaluated for the ability to inhibit purified H+/K+ -ATPase at pH 7.4, by using gastric membrane vesicles prepared from hog stomach.
Assay type: functional, tissue-based, Sus scrofa
# note: boundary value 10 uM l-1 maps to FALSE; IC50 below it maps to TRUE

I wonder whether Cc1nc2c(/C=C/Cc3ccccc3)cccn2c1CC#N has IC50 below 10 uM l-1. Can you tell? FALSE

Answer whether the compound Cc1nc2c(/C=C\c3ccccc3)cccn2c1C has IC50 strictly less than 10 uM l-1 FALSE

Is IC50 of Cc1nc2c(CCc3ccccc3)cccn2c1N strictly below 10 uM l-1? TRUE

Dear reviewer, please state whether Cc1nc2c(/C=C/c3ccccc3)cccn2c1C has IC50 strictly beneath 10 uM l-1. TRUE

Record Cc1nc2c(/C=C/Cc3ccccc3)cccn2c1N : is its IC50 strictly below 10 uM l-1? TRUE

Determine if Cc1ccn2c(CC#N)c(C)nc2c1OCc1ccccc1 shows IC50 strictly lower than 10 uM l-1. FALSE

I'd appreciate it if you could check whether Cc1nc2c(C/C=C/c3ccccc3)cccn2c1CC#N has IC50 smaller than 10 uM l-1. FALSE

Confirm or reject: IC50 of Cc1nc2c(OCc3ccccc3)nccn2c1N lies strictly below 10 uM l-1 FALSE

Would you kindly verify if IC50 of Cc1nc2c(OCc3ccccc3)cccn2c1N is strictly less than 10 uM l-1? TRUE

Strictly below 10 uM l-1 in IC50? Cc1nc2c(CCc3ccccc3)cccn2c1CC#N TRUE

# strict comparison: is reported IC50 < 10 uM l-1? input = Cc1nc2c3c(ccn2c1CC#N)CCC(c1ccccc1)O3 (racemic) TRUE
